The measurements presented in this section are drawn from patent US20210340548A1.

measurement target: Cry2 PHR (L348F)-p65AD-NLSx2 fusion construct as released from the TetR (I194T, 1-206)-CIB1 (-NLS)-T2A-Cry2 PHR (L348F)-p65AD-NLSx2 fusion construct
Sequence (Q96524 other isoform, or with tags, fused parts or gaps L348F I194T L348F L348F I194T L348F): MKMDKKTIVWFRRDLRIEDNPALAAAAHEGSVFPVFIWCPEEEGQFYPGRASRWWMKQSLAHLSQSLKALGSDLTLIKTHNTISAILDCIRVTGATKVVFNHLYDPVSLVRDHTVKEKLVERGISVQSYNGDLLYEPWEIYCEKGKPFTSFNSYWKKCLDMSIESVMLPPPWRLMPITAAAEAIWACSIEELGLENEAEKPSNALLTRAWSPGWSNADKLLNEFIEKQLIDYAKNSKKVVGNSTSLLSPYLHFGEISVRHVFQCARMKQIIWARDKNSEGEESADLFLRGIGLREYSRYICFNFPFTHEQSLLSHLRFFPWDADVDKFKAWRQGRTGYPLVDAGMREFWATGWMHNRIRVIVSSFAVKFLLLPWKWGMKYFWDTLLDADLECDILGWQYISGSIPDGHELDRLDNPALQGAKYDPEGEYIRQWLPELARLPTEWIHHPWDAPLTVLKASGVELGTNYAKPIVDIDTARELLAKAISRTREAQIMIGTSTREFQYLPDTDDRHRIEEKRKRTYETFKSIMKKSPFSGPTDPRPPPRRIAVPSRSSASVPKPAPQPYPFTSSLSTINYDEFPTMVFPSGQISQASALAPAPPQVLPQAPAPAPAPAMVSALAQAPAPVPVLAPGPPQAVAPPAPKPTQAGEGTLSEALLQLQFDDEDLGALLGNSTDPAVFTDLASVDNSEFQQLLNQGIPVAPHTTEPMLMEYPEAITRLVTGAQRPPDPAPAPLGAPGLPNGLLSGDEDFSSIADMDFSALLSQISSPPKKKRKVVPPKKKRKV
protocol description: cell-based or functional assay
endpoint: Ub-ELuc luciferase, Light, Dox 0 ng/mL (relative)
// note: answer is a bare numeric in relative

Reported Ub-ELuc luciferase, Light, Dox 0 ng/mL for rTetR (I194T, S2 mutation, 1-206)-CIB1 (-NLS) from the T2A construct (protein, part only; not given: Leftover T2A residues, part only) chain, part: MARLDKSKVINSALELLNGVGIEGLTTRKLAQKLGVEQPTLYWHVKNKRALLDALPIEMLDRHHTHFCPLEGESWQDFLRNNAKSFRCALLSHRDGAKVHLGTRPTEKQYETLENQLAFLCQQGFSLENALYALSAVGHFTLGCVLEEQEHQVAKEERETPTTDSMPPLLRQAIELFDRQGAEPAFLFGLELITCGLEKQLKCESGSPKKKHMEFNGAIGGDLLLNFPDMSVLERQRAHLKYLNPTFDSPLAGFFADSSMITGGEMDSYLSTAGLNLPMMYGETTVEGDSRLSISPETTLGTGNFKAAKFDTETKDCNEAAKKMTMNRDDLVEEGEEEKSKITEQNNGSTKSIKKMKHKAKKEENNFSNDSSKVTKELEKTDYI : what is it?
0.5

Reported Ub-ELuc luciferase, Light, Dox 0 ng/mL for rTetR (I194T, M2 mutation, 1-206)-CIB1 (-NLS) from the T2A construct (protein, part only; not given: Leftover T2A residues, part only) chain, part: MARLDKSKVINGALELLNGVGIEGLTTRKLAQKLGVEQPTLYWHVKNKRALLDALPIEMLDRHHTHFCPLEGESWQDFLRNNAKSFRCALLSHRDGAKVHLGTRPTEKQYETLENQLAFLCQQGFSLENALYALSAVGHFTLGCVLEEQEHQVAKEERETPTTDSMPPLLRQAIELFDRQGAEPAFLFGLELITCGLEKQLKCESGSPKKKHMEFNGAIGGDLLLNFPDMSVLERQRAHLKYLNPTFDSPLAGFFADSSMITGGEMDSYLSTAGLNLPMMYGETTVEGDSRLSISPETTLGTGNFKAAKFDTETKDCNEAAKKMTMNRDDLVEEGEEEKSKITEQNNGSTKSIKKMKHKAKKEENNFSNDSSKVTKELEKTDYI : what is it?
0.3
